Organism: Homo sapiens
PROCEDURE_DETAILS: Selectivity for S1P1 receptor over S1P4 receptor
Each entry below carries its reported Selectivity ratio.

Illustrative cases are given below, each with its answer.
1) Cc1cc(CCC(=O)O)ccc1-c1nnc(-c2ccc(OC(C)C)c(C#N)c2)s1 ... > 1000
2) Cc1cc(CCC(=O)O)ccc1-c1nc(C)c(-c2ccc(OC(C)C)c(C#N)c2)s1 ... > 1000
3) Cc1cc(CCC(=O)O)ccc1-c1cnc(-c2ccc(OC(C)C)c(C#N)c2)s1 ... > 1000
4) Cc1cc(CCC(=O)O)ccc1-c1csc(-c2ccc(OC(C)C)c(C#N)c2)c1 ... > 1000
5) Cc1cc(CCC(=O)O)ccc1-c1nnc(-c2ccc(OC3CCC3)c(C#N)c2)s1 ... > 1000
6) COc1ccc(-c2nnc(-c3ccc(CCC(=O)O)cc3C)s2)cc1C#N ... > 1000
7) Cc1cc(CCC(=O)O)ccc1-c1nnc(-c2ccc(OCC(F)F)c(C#N)c2)s1 ... > 1000
8) Cc1cc(CCC(=O)O)ccc1-c1nnc(-c2ccc(OCC(=O)O)c(C#N)c2)s1 ... > 1000
9) Cc1cc(CCC(=O)O)ccc1-c1nc(-c2ccc(OC(C)C)c(C#N)c2)n[nH]1 ... > 1000

Switching to the query record.
Req: Fill in the blank: the reported Selectivity ratio of Cc1cc(CCC(=O)O)ccc1-c1ccc(-c2ccc(OC(C)C)c(C#N)c2)s1 is ____.
Resp: > 1000

###

Each entry below carries its reported pEC50.
SUBJECT_OF_TEST: Sphingosine 1-phosphate receptor 3 (Homo sapiens, UniProt Q99500)
Sequence (Q99500 whole entry): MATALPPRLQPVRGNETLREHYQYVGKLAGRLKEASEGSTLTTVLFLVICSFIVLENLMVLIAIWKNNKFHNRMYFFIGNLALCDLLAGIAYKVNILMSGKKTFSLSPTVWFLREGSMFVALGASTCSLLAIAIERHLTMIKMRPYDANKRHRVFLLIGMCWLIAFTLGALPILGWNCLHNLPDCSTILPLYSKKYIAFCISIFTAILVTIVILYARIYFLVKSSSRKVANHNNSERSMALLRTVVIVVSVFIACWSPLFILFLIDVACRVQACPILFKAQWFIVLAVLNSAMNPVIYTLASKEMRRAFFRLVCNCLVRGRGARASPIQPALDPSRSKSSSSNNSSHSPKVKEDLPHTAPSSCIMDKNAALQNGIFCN
PROCEDURE_DETAILS: Agonist activity at S1P3 receptor assessed as induction of [35S]GTP-gamma-S binding
pEC50: −log10 of the molar value.

1) Cc1cc(CCC(=O)O)ccc1-c1noc(-c2ccc(OC(C)C)c(Cl)c2)n1 ... 6.03
2) Cc1cc(CCC(=O)O)ccc1-c1nnn(-c2ccc(OC(C)C)c(C#N)c2)n1 ... < 5.00
3) Cc1cc(CCC(=O)O)ccc1-c1nnc(-c2ccc(OC(C)C)c(C#N)c2)[nH]1 ... < 5.00
4) Cc1cc(CCC(=O)O)ccc1-c1ccc(-c2ccc(OC(C)C)c(C#N)c2)s1 ... < 5.00
5) Cc1cc(CCC(=O)O)ccc1-c1cc(-c2ccc(OC(C)C)c(C#N)c2)cs1 ... < 5.00

Req: Fill in the blank: the reported pEC50 of Cc1cc(CCC(=O)O)ccc1-c1nnc(-c2ccc(OC(C)C)c(C#N)c2)n1C is ____.
Resp: < 5.00

Req: Fill in the blank: the reported pEC50 of Cc1cc(CCC(=O)O)ccc1-c1noc(-c2cnc(OC(C)C)c(Cl)c2)n1 is ____.
Resp: 6.02

###

SUBJECT_OF_TEST: Sphingosine 1-phosphate receptor 1 (Homo sapiens, UniProt P21453)
Sequence (P21453 whole entry): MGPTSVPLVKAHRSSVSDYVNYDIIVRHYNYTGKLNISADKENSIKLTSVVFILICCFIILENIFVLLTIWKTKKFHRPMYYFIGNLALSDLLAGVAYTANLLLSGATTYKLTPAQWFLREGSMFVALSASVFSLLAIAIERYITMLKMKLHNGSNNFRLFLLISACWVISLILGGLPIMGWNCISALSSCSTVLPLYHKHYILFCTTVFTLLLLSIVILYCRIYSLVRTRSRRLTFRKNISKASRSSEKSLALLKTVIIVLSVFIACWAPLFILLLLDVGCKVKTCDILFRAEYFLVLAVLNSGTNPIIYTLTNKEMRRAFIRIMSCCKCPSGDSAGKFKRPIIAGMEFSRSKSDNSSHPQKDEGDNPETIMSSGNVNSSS
PROCEDURE_DETAILS: Agonist activity at S1P1 receptor assessed as induction of [35S]GTP-gamma-S binding
pEC50: −log10 of the molar value.
READOUT_LABEL: pEC50

(a) CCOc1ccc(-c2nnc(-c3ccc(CCC(=O)O)cc3C)s2)cc1C#N
(b) Cc1cc(CCC(=O)O)ccc1-c1nnc(-c2ccc(OC(C)C)c(C#N)c2)s1
(c) Cc1cc(CCC(=O)O)ccc1-c1nnc(-c2ccc(OCCF)c(C#N)c2)s1
(d) Cc1cc(CCC(=O)O)ccc1-c1nnc(-c2ccc(OC(C)C)c(C#N)c2)[nH]1
Req: From the records above, write out the order of decreasing pEC50. Field: ranking. Enter the labels in the order requested.
Resp: b, a, c, d
(b: 9.70, a: 8.68, c: 8.02, d: 6.42)

(1) Cc1cc(CCC(=O)O)ccc1-c1nnc(-c2ccc(CC(C)C)c(C#N)c2)s1
(2) Cc1cc(CCC(=O)O)ccc1-c1nnc(-c2ccc(OCC(C)C)c(C#N)c2)s1
Req: Which shows the larger pEC50 value: 1 or 2 ? # reply format: chosen label
Resp: 1

(a) Cc1cc(CCC(=O)O)ccc1-c1nnc(-c2ccc(OC3CCC3)c(C#N)c2)s1
(b) Cc1cc(CCC(=O)O)ccc1-c1nnc(-c2cnc(OC(C)C)c(Cl)c2)s1
(c) Cc1cc(CCC(=O)O)ccc1-c1coc(-c2cnc(OC(C)C)c(Cl)c2)n1
Req: Please list these in order of increasing pEC50. Thank you! Field: ranking. Enter the labels in the order requested.
Resp: c, b, a

(a) Cc1cc(CCC(=O)O)ccc1-c1nnc(-c2ccc(OCC(F)F)c(C#N)c2)s1
(b) Cc1cc(CCC(=O)O)ccc1-c1nnc(-c2ccc(OC(C(F)(F)F)C(F)(F)F)c(C#N)c2)s1
Req: Looking only at measured pEC50, which entry is lower, a or b ? # reply format: chosen label
Resp: b

(P) Cc1cc(CCC(=O)O)ccc1-n1nnc(-c2ccc(OC(C)C)c(C#N)c2)n1
(Q) Cc1cc(CCC(=O)O)ccc1-c1nnc(-c2ccc(OCC#N)c(C#N)c2)s1
Req: Looking only at measured pEC50, which entry is lower, P or Q ? # reply format: chosen label
Resp: Q

(a) Cc1cc(CCC(=O)O)ccc1-c1nnc(-c2ccc(OCCC(F)(F)F)c(C#N)c2)s1
(b) Cc1cc(CCC(=O)O)ccc1-c1noc(-c2ccc(OC(C)C)c(Cl)c2)n1
(c) Cc1cc(CCC(=O)O)ccc1-c1ccc(-c2ccc(OC(C)C)c(C#N)c2)s1
(d) Cc1cc(CCC(=O)O)ccc1-c1cc(-c2ccc(OC(C)C)c(C#N)c2)cs1
Req: Please list these in order of increasing pEC50. Thank you! Field: ranking. Enter the labels in the order requested.
Resp: d, a, c, b

###

SUBJECT_OF_TEST: Sphingosine 1-phosphate receptor 3 (Homo sapiens, UniProt Q99500)
PROCEDURE_DETAILS: Inhibition of S1P3 receptor at 10 uM
READOUT_LABEL: inhibition (%)

(a) Cc1cc(CCC(=O)O)ccc1-c1nnc(-c2cnc(OC(C)C)c(Cl)c2)o1
(b) Cc1cc(CCC(=O)O)ccc1-c1nnc(-c2cnc(OC(C)C)c(Cl)c2)s1
(c) Cc1cc(CCC(=O)O)ccc1-c1csc(-c2cnc(OC(C)C)c(Cl)c2)n1
(d) Cc1cc(CCC(=O)O)ccc1-c1coc(-c2cnc(OC(C)C)c(Cl)c2)n1
Req: From the records above, write out the order of decreasing inhibition. Field: ranking. Enter the labels in the order requested.
Resp: a, b, d, c
(a: 82%, b: 36%, d: 8%, c: 0%)

###

Species: Homo sapiens
PROCEDURE_DETAILS: Selectivity for S1P1 receptor over S1P5 receptor
READOUT_LABEL: Selectivity ratio

1) Cc1cc(CCC(=O)O)ccc1-c1nnc(-c2ccc(OCC#N)c(C#N)c2)s1 ... 220

(1) Cc1cc(CCC(=O)O)ccc1-c1nnc(-c2ccc(OCC(C)C)c(C#N)c2)s1
(2) Cc1cc(CCC(=O)O)ccc1-c1nnc(-c2ccc(OCCC(F)(F)F)c(C#N)c2)s1
Req: Looking only at measured Selectivity ratio, which entry is lower, 1 or 2 ? # reply format: chosen label
Resp: 2

###

SUBJECT_OF_TEST: Sphingosine 1-phosphate receptor 1 (Homo sapiens, UniProt P21453)
PROCEDURE_DETAILS: Agonist activity at S1P1 receptor assessed as induction of [35S]GTP-gamma-S binding
pEC50: −log10 of the molar value.
READOUT_LABEL: pEC50

Illustrative cases are given below, each with its answer.
1) Cc1cc(CCC(=O)O)ccc1-c1noc(-c2ccc(OC(C)C)c(C#N)c2)n1 ... 10.00
2) Cc1cc(CCC(=O)O)ccc1-c1ccc(-c2ccc(OC(C)C)c(C#N)c2)o1 ... < 5.00

Req: Fill in the blank: the reported pEC50 of Cc1cc(CCC(=O)O)ccc1-c1nc(C)c(-c2ccc(OC(C)C)c(C#N)c2)s1 is ____.
Resp: < 5.44

Req: Fill in the blank: the reported pEC50 of Cc1cc(CCC(=O)O)ccc1-c1nnc(-c2cccc(C#N)c2)s1 is ____.
Resp: < 6.00

###

Organism: Homo sapiens
PROCEDURE_DETAILS: Selectivity for S1P1 receptor over S1P5 receptor
Each entry below carries its reported Selectivity ratio.

Illustrative cases are given below, each with its answer.
1) Cc1cc(CCC(=O)O)ccc1-c1nnc(-c2ccc(OCCF)c(C#N)c2)s1 ... > 100
2) Cc1cc(CCC(=O)O)ccc1-c1ncc(-c2ccc(OC(C)C)c(C#N)c2)s1 ... > 600

Switching to the query record.
Req: Fill in the blank: the reported Selectivity ratio of COc1ccc(-c2nnc(-c3ccc(CCC(=O)O)cc3C)s2)cc1C#N is ____.
Resp: > 100

This collection of values is drawn from ChEMBL document CHEMBL1138961.
